Test: Induction of singlet oxygen production in DMF under photoirradiation with 650nm in […] by UV-Visible spectrophotometric analysis
Assay type: functional
metric: Activity
Give bare numbers.

input.smiles: O=C(O)COc1ccc(C2=C3C=c4sc5cc(Br)sc5c4=[N+]3[B-](F)(F)n3c2cc2sc4cc(Br)sc4c23)cc1
experimental.result: 0.27

// for each compound in input: emit Activity
1. O=C(O)c1cc(C(=O)O)cc(C2=C3C=c4sc5cc(Br)sc5c4=[N+]3[B-](F)(F)n3c2cc2sc4cc(Br)sc4c23)c1
2. O=C(O)CCNC(=O)c1ccc(C2=C3C=c4sc5cc(Br)sc5c4=[N+]3[B-](F)(F)n3c2cc2sc4cc(Br)sc4c23)cc1
3. O=C(O)CCCCOc1ccc(C2=C3C=c4sc5cc(Br)sc5c4=[N+]3[B-](F)(F)n3c2cc2sc4cc(Br)sc4c23)cc1

### Response
0.41
0.37
0.13

### Prompt Give recorded Activity. `O=C(O)c1ccc(C2=C3C=c4sc5ccsc5c4=[N+]3[B-](F)(F)n3c2cc2sc4ccsc4c23)cc1`
### Response 0.04
